- target.of.assay: Human immunodeficiency virus type 1 integrase (Human immunodeficiency virus 1)
- Sequence (Q7ZJM1 whole entry): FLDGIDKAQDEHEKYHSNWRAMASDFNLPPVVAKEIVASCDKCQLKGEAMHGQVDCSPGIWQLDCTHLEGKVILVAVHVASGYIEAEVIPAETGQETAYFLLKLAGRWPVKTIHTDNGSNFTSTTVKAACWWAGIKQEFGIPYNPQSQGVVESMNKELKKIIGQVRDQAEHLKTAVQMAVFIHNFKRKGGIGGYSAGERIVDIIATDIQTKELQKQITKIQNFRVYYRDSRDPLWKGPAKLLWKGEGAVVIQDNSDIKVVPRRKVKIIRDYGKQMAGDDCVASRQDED
- assay.text: Inhibition of HIV1 integrase strand transfer activity
observed.property: IC50 (µM)
Respond with the bare value in µM.

response.value for `COC(=O)C(=O)/C=C(\O)c1cccn1Cc1ccc(F)cc1` (field: IC50) = 48

###

- target.of.assay: Human immunodeficiency virus type 1 integrase (Human immunodeficiency virus 1)
- assay.text: Inhibition of HIV1 integrase 3' processing activity
observed.property: pIC50
Lab note: report pIC50 as minus log10 of the concentration in molar units, number only.

Query `COC(=O)C(=O)/C=C(\O)c1cccn1Cc1ccc(F)cc1` yields pIC50 of 3.73

Attribution: ChEMBL document CHEMBL1138095
